test protocol: activity coefficient (dimensionless); of the first substance listed, at infinite dilution; xn = mol fraction of the nth substance listed
measurement context: 333.15 K; 101 kPa; Liquid; Chromatography; x1 = 0
// activity coefficient lookup, one value per entry
reported endpoint: activity coefficient

compound	readout number
Cc1ccccc1 [toluene] + CCCC[N+]1(C)CCCC1.N#C[B-](C#N)(C#N)C#N	1.17
CCc1ccccc1 [ethylbenzene] + CCCC[N+]1(C)CCCC1.O=C1O[B-]2(OC1=O)OC(=O)C(=O)O2	3.97
C1CCCCC1 [cyclohexane] + CCCC[N+]1(C)CCCC1.N#C[B-](C#N)(C#N)C#N	7.83
CCOC(C)=O [ethyl acetate] + CCCC[N+]1(C)CCCC1.N#C[B-](C#N)(C#N)C#N	0.967
ClC(Cl)(Cl)Cl [tetrachloromethane] + CCCC[N+]1(C)CCCC1.O=C1O[B-]2(OC1=O)OC(=O)C(=O)O2	4.23
COCCOC [1,2-dimethoxyethane] + CCCC[N+]1(C)CCCC1.O=C1O[B-]2(OC1=O)OC(=O)C(=O)O2	1.16
CC(C)=O [acetone] + CCCC[N+]1(C)CCCC1.O=C1O[B-]2(OC1=O)OC(=O)C(=O)O2	0.762
COC(C)(C)C [2-methoxy-2-methylpropane] + CCCC[N+]1(C)CCCC1.O=C1O[B-]2(OC1=O)OC(=O)C(=O)O2	6.34

* * *

test protocol: activity coefficient (dimensionless); of the first substance listed, at infinite dilution; xn = mol fraction of the nth substance listed
measurement context: 343.15 K; 101 kPa; Liquid; Chromatography; x1 = 0

compound	activity coefficient
CCC1CCCCC1 [ethylcyclohexane] + CCCC[N+]1(C)CCCC1.N#C[B-](C#N)(C#N)C#N	14.8
COC(C)(C)C [2-methoxy-2-methylpropane] + CCCC[N+]1(C)CCCC1.N#C[B-](C#N)(C#N)C#N	2.48
c1ccsc1 [thiophene] + CCCC[N+]1(C)CCCC1.N#C[B-](C#N)(C#N)C#N	0.718
COCCOC [1,2-dimethoxyethane] + CCCC[N+]1(C)CCCC1.N#C[B-](C#N)(C#N)C#N	0.594
CCOC(C)=O [ethyl acetate] + CCCC[N+]1(C)CCCC1.O=C1O[B-]2(OC1=O)OC(=O)C(=O)O2	1.74
CCO [ethanol] + CCCC[N+]1(C)CCCC1.N#C[B-](C#N)(C#N)C#N	1.09
Cc1cccc(C)c1 [1,3-dimethylbenzene] + CCCC[N+]1(C)CCCC1.O=C1O[B-]2(OC1=O)OC(=O)C(=O)O2	3.84
C1CCOC1 [tetrahydrofuran] + CCCC[N+]1(C)CCCC1.O=C1O[B-]2(OC1=O)OC(=O)C(=O)O2	1.14

* * *

test protocol: activity coefficient (dimensionless); of the first substance listed, at infinite dilution; xn = mol fraction of the nth substance listed
measurement context: 343.15 K; 101 kPa; Liquid; Chromatography; x1 = 0
// activity coefficient lookup, one value per entry

molecule	activity coefficient
c1ccccc1 [benzene] + CCCC[N+]1(C)CCCC1.O=C1O[B-]2(OC1=O)OC(=O)C(=O)O2	1.63
CCC1CCCCC1 [ethylcyclohexane] + CCCC[N+]1(C)CCCC1.O=C1O[B-]2(OC1=O)OC(=O)C(=O)O2	36.9
ClC(Cl)Cl [trichloromethane] + CCCC[N+]1(C)CCCC1.O=C1O[B-]2(OC1=O)OC(=O)C(=O)O2	1.03
Cc1cccc(C)c1 [1,3-dimethylbenzene] + CCCC[N+]1(C)CCCC1.N#C[B-](C#N)(C#N)C#N	1.69
C[N+](=O)[O-] [nitromethane] + CCCC[N+]1(C)CCCC1.N#C[B-](C#N)(C#N)C#N	0.431
CCCCCCCC [octane] + CCCC[N+]1(C)CCCC1.O=C1O[B-]2(OC1=O)OC(=O)C(=O)O2	77.7
ClCCl [dichloromethane] + CCCC[N+]1(C)CCCC1.O=C1O[B-]2(OC1=O)OC(=O)C(=O)O2	0.76
CCO [ethanol] + CCCC[N+]1(C)CCCC1.O=C1O[B-]2(OC1=O)OC(=O)C(=O)O2	1.75

* * *

// activity coefficient lookup, one value per entry
test protocol: activity coefficient (dimensionless); of the first substance listed, at infinite dilution; xn = mol fraction of the nth substance listed
measurement context: 343.15 K; 101 kPa; Liquid; Chromatography; x1 = 0
reported endpoint: activity coefficient

compound	reported endpoint	readout number
CCCO [propan-1-ol] + CCCC[N+]1(C)CCCC1.O=C1O[B-]2(OC1=O)OC(=O)C(=O)O2	activity coefficient	2.3
COC(=O)OC [dimethyl carbonate] + CCCC[N+]1(C)CCCC1.O=C1O[B-]2(OC1=O)OC(=O)C(=O)O2	activity coefficient	0.861
FC(F)(F)C(Cl)Br (stereo not drawn) [1-bromo-1-chloro-2,2,2-trifluoroethane] + CCCC[N+]1(C)CCCC1.N#C[B-](C#N)(C#N)C#N	activity coefficient	0.977
CC(C)OC(C)C [diisopropyl ether] + CCCC[N+]1(C)CCCC1.O=C1O[B-]2(OC1=O)OC(=O)C(=O)O2	activity coefficient	17
Cc1ccccc1 [toluene] + CCCC[N+]1(C)CCCC1.N#C[B-](C#N)(C#N)C#N	activity coefficient	1.19
CCC(C)=O [butanone] + CCCC[N+]1(C)CCCC1.O=C1O[B-]2(OC1=O)OC(=O)C(=O)O2	activity coefficient	1.12
C1CCCCC1 [cyclohexane] + CCCC[N+]1(C)CCCC1.N#C[B-](C#N)(C#N)C#N	activity coefficient	7.44
CC(C)OC(C)C [diisopropyl ether] + CCCC[N+]1(C)CCCC1.N#C[B-](C#N)(C#N)C#N	activity coefficient	5.85

* * *

test protocol: activity coefficient (dimensionless); of the first substance listed, at infinite dilution; xn = mol fraction of the nth substance listed
measurement context: 333.15 K; 101 kPa; Liquid; Chromatography; x1 = 0

molecule	activity coefficient
CCc1ccccc1 [ethylbenzene] + CCCC[N+]1(C)CCCC1.N#C[B-](C#N)(C#N)C#N	1.68
CO [methanol] + CCCC[N+]1(C)CCCC1.O=C1O[B-]2(OC1=O)OC(=O)C(=O)O2	1.27
CCCCCCC [heptane] + CCCC[N+]1(C)CCCC1.O=C1O[B-]2(OC1=O)OC(=O)C(=O)O2	62.9
Cc1cccc(C)c1 [1,3-dimethylbenzene] + CCCC[N+]1(C)CCCC1.N#C[B-](C#N)(C#N)C#N	1.66
C1CCOC1 [tetrahydrofuran] + CCCC[N+]1(C)CCCC1.N#C[B-](C#N)(C#N)C#N	0.65
CC(C)=O [acetone] + CCCC[N+]1(C)CCCC1.N#C[B-](C#N)(C#N)C#N	0.461
COC(C)=O [methyl ethanoate] + CCCC[N+]1(C)CCCC1.N#C[B-](C#N)(C#N)C#N	0.693
COC(=O)OC [dimethyl carbonate] + CCCC[N+]1(C)CCCC1.N#C[B-](C#N)(C#N)C#N	0.543

* * *

test protocol: activity coefficient (dimensionless); of the first substance listed, at infinite dilution; xn = mol fraction of the nth substance listed
measurement context: 363.15 K; 101 kPa; Liquid; Chromatography; x1 = 0
// activity coefficient lookup, one value per entry

molecule	activity coefficient
ClC(Cl)(Cl)Cl [tetrachloromethane] + CCCC[N+]1(C)CCCC1.O=C1O[B-]2(OC1=O)OC(=O)C(=O)O2	4
COC(C)=O [methyl ethanoate] + CCCC[N+]1(C)CCCC1.O=C1O[B-]2(OC1=O)OC(=O)C(=O)O2	1.08
C1CCOC1 [tetrahydrofuran] + CCCC[N+]1(C)CCCC1.O=C1O[B-]2(OC1=O)OC(=O)C(=O)O2	1.15
C1CCCCC1 [cyclohexane] + CCCC[N+]1(C)CCCC1.O=C1O[B-]2(OC1=O)OC(=O)C(=O)O2	14.7
COCCOC [1,2-dimethoxyethane] + CCCC[N+]1(C)CCCC1.O=C1O[B-]2(OC1=O)OC(=O)C(=O)O2	1.26
FC(F)(F)C(Cl)Br (configuration not stated) [1-bromo-1-chloro-2,2,2-trifluoroethane] + CCCC[N+]1(C)CCCC1.O=C1O[B-]2(OC1=O)OC(=O)C(=O)O2	1.77
ClC(Cl)Cl [trichloromethane] + CCCC[N+]1(C)CCCC1.O=C1O[B-]2(OC1=O)OC(=O)C(=O)O2	1.08

* * *

test protocol: activity coefficient (dimensionless); of the first substance listed, at infinite dilution; xn = mol fraction of the nth substance listed
measurement context: 343.15 K; 101 kPa; Liquid; Chromatography; x1 = 0
Lab note: compare activity coefficient with 1, writing 1 (yes) if less and 0 (no) if equal or more.

molecule	label value
CCCO [propan-1-ol] + CCCC[N+]1(C)CCCC1.N#C[B-](C#N)(C#N)C#N	0 (no)
CCCCCCC [heptane] + CCCC[N+]1(C)CCCC1.O=C1O[B-]2(OC1=O)OC(=O)C(=O)O2	0 (no)
CO [methanol] + CCCC[N+]1(C)CCCC1.N#C[B-](C#N)(C#N)C#N	1 (yes)
CC(C)=O [acetone] + CCCC[N+]1(C)CCCC1.N#C[B-](C#N)(C#N)C#N	1 (yes)
COC(=O)OC [dimethyl carbonate] + CCCC[N+]1(C)CCCC1.N#C[B-](C#N)(C#N)C#N	1 (yes)
CC(C)O [propan-2-ol] + CCCC[N+]1(C)CCCC1.N#C[B-](C#N)(C#N)C#N	0 (no)
CC1CCCCC1 [methylcyclohexane] + CCCC[N+]1(C)CCCC1.N#C[B-](C#N)(C#N)C#N	0 (no)
CO [methanol] + CCCC[N+]1(C)CCCC1.O=C1O[B-]2(OC1=O)OC(=O)C(=O)O2	0 (no)
